assay.target: PDE 2A (Homo sapiens (Human))
Sequence (O00408 whole entry, species assumed): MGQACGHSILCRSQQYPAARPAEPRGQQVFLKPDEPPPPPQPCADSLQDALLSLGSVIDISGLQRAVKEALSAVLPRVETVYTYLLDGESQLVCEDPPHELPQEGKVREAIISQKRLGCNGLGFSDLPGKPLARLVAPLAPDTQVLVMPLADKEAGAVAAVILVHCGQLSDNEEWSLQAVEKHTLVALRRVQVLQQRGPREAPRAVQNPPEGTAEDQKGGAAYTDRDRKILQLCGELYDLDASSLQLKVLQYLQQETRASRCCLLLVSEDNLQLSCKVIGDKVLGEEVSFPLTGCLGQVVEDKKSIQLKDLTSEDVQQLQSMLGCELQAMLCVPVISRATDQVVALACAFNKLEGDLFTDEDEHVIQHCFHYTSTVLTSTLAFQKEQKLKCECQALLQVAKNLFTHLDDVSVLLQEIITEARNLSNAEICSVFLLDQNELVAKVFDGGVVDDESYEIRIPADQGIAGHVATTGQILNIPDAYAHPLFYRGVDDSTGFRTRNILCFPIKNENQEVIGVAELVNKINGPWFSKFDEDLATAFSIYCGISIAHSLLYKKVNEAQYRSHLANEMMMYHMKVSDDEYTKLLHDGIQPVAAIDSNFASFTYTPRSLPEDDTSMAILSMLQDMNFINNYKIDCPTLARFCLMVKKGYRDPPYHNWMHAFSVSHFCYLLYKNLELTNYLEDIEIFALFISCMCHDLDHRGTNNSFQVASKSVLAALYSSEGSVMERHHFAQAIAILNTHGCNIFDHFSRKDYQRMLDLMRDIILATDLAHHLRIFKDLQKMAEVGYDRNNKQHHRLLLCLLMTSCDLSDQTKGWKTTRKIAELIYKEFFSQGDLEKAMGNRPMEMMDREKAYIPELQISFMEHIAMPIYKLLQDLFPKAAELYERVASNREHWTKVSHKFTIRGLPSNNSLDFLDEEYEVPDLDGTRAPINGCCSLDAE
measure.name: pIC50
// returns pIC50 (minus log10 of molar concentration), number only

For PDE 2A (Homo sapiens (Human)), give the measured pIC50 of the entry Cc1nn2cc(C3CC3)cnc2c1C(=O)NC1(c2ccc(C(F)(F)F)cn2)CCOCC1O (racemic) 6.91

* * *

assay.target: PDE10 (Homo sapiens (Human), UniProt Q9Y233)
Sequence (Q9Y233 whole entry): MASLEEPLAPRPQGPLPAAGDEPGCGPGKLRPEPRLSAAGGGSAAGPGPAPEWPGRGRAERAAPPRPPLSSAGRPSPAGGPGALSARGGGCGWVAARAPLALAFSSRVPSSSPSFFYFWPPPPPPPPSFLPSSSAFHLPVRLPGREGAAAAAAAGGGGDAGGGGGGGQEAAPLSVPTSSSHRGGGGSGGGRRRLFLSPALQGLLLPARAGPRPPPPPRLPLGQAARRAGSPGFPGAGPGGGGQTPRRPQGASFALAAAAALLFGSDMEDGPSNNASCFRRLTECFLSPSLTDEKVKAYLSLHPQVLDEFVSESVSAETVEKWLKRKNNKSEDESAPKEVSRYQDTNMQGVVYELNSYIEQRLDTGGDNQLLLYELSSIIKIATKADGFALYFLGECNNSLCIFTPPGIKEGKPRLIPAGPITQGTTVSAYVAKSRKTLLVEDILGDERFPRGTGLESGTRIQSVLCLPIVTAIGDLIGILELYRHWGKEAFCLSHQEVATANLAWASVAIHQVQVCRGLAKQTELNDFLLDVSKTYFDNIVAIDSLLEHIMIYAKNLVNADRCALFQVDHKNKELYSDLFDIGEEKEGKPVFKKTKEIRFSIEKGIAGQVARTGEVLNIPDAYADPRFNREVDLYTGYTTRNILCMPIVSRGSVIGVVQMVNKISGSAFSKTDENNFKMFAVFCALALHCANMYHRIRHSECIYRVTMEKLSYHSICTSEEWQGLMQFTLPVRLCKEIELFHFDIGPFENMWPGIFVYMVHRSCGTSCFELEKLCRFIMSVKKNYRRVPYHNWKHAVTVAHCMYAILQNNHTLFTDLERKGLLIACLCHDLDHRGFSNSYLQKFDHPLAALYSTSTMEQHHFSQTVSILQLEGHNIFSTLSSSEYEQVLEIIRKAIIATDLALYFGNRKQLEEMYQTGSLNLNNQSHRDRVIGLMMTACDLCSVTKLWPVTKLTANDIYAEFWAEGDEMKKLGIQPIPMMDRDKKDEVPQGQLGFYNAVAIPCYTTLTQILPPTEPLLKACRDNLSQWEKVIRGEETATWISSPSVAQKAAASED
measure.name: IC50

Look up PDE10 (Homo sapiens (Human), UniProt Q9Y233) data: IC50 of Cc1nn2cc(C3CC3)cnc2c1C(=O)NC1(c2ccc(C(F)(F)F)cn2)CCOCC1O (racemic) , then report it. > 10 µM
